B1: Ribonuclease HI, P0A7Y4 (parent)
chain: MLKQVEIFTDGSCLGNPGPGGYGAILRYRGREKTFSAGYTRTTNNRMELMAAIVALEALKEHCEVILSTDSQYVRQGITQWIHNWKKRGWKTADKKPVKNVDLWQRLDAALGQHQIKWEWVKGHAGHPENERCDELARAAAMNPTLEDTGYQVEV

Variants of: B1
Details: Escherichia coli (strain K12); pH 8.2; 25 °C; GdnHCl; CD; Tris-HCl 20 mM; reversible: yes; structure 2RN2; whole UniProt chain shown
Record form. Attribute: ddG of mutation (higher = less stable). Fill in for each entry.
Please report the result as a number followed by the unit.

Here is how some variants turned out for ddG of mutation (higher = less stable).
[[record]]
residue_change = "H62A"
reported = "-0.58 kcal/mol"

[[record]]
residue_change = "H127A"
reported = "0.31 kcal/mol"

[[record]]
residue_change = "H124A"
reported = "-0.05 kcal/mol"


Consider the record given below.
Which ddG of mutation (higher = less stable) reading was recorded for the variant H83A ?
0.09 kcal/mol
